Target: T1, LTKTG-EGFL (human LTK amino acids 63-420) (human, UniProt P29376 63-420)
T1 construct: Fc-His6 tag removed by caspase 3; also called LTK (in BLI, SEC-MALLS and ITC)
T1 sequence: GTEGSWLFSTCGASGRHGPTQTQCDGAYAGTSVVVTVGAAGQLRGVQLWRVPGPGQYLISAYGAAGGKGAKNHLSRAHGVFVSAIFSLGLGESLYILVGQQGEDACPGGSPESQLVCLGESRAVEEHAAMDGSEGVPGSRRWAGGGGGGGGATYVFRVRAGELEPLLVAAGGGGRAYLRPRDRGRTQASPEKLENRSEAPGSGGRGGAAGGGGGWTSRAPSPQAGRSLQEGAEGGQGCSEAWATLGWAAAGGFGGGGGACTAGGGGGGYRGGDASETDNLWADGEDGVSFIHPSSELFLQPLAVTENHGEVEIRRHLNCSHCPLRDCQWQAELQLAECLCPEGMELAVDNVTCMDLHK
Assay: BLI, biotinylated ALKAL1 on streptavidin biosensors, LTKTG-EGFL in solution 300 nM to 11 nM, 2:1 binding model, component 1
READOUT LABEL: Kd (nM)
One number for each entry, in nM.

I would be grateful if you could share the reported Kd for ALKAL1 (truncated, residues 57-129) (ligand, human, UniProt Q6UXT8 57-129, looked up, range 57-129; Tag-free in ITC, SEC-MALLS, crystals and Ba/F3 assays; also called ALKAL1^WT; WT ALKAL1) PSGSRSAEIFPRDSNLKDKFIKHFTGPVTFSPECSKHFHRLYYNTRECSTPAYYKRCARLLTRLAVSPLCSQT .
48
